Reference for the values: paper PMC6002439

# TARGET UNDER TEST: CK2α2β2 (Homo sapiens, UniProt P68400)
# Construct: GST (N); made in house; host or cells: E. coli BL21(DE3)trxB
# Sequence (P68400 whole entry): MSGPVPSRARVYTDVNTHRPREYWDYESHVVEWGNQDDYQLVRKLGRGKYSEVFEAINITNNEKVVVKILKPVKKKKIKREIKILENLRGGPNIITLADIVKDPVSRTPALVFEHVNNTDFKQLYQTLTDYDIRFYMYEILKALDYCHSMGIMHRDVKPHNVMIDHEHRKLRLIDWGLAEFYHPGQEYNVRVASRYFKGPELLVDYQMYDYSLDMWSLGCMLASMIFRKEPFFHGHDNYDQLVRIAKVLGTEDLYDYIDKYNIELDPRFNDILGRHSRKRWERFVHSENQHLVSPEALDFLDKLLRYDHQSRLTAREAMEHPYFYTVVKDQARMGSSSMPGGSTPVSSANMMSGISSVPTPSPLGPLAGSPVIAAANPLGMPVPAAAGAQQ
# Sequence (P67870 whole entry partner): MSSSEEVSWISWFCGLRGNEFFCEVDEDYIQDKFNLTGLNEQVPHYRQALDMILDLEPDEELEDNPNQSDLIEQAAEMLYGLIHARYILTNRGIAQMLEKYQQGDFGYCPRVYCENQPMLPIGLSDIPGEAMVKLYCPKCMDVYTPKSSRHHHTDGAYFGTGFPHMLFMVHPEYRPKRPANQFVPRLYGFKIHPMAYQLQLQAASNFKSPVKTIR
# PROCEDURE DETAILS: CK2 activity, phosphorylation of synthetic peptide […], CK2α2β2 holoenzyme
# Type: biochemical
# RUN CONDITIONS: 50 μM synthetic peptide as substrate, 20 µM ATP
In this section, each of the molecules is paired with its reported IC50.
# value in µM; strip the unit string

Prompt: Write down the reported IC50 (system: CK2α2β2 (Homo sapiens, UniProt P68400)) of O=c1cc(-c2ccc(O)c(O)c2)oc2cc(OC3OC(CO)C(O)C(O)C3O)cc(O)c12 (stereo not shown) [Compound 5a, luteolin 7-O-glucoside]
Response: 9

Prompt: Write down the reported IC50 (system: CK2α2β2 (Homo sapiens, UniProt P68400)) of O=C(O)C1OC(Oc2cc(O)c3c(=O)cc(-c4ccc(O)cc4)oc3c2)C(O)C(O)C1O (stereo not shown) [Compound 4b, Apigenin 7-O-glucuronide]
Response: 9.4

Prompt: Write down the reported IC50 (system: CK2α2β2 (Homo sapiens, UniProt P68400)) of O=c1cc(-c2ccc(O)cc2)oc2cc(OC3OC(CO)C(O)C(O)C3O)c(O)c(O)c12 (stereo not shown) [Compound 9a, scutellarein 7-O-glucoside]
Response: 5.4

Further cases:
Prompt: Write down the reported IC50 (system: CK2α2β2 (Homo sapiens, UniProt P68400)) of O=c1cc(-c2ccc(O)c(O)c2)oc2cc(OC3OC(CO)C(O)C(O)C3O)c(O)c(O)c12 (stereo not shown) [Compound 5b, 6-hydroxyluteolin 7-O-glucoside]
Response: 6.2

Prompt: Write down the reported IC50 (system: CK2α2β2 (Homo sapiens, UniProt P68400)) of O=c1cc(-c2ccc(O)cc2)oc2cc(OC3OC(CO)C(O)C(O)C3O)cc(O)c12 (stereo not shown) [Compound 4a, apigenin 7-O-glucoside]
Response: 12.1

Prompt: Write down the reported IC50 (system: CK2α2β2 (Homo sapiens, UniProt P68400)) of O=C1/C(=C/c2ccc(O)c(O)c2)Oc2cc(O)cc(O[C@@H]3O[C@H](CO)[C@@H](O)[C@H](O)[C@H]3O)c21 [Compound 10, cernuoside]
Response: 5.1

Prompt: Write down the reported IC50 (system: CK2α2β2 (Homo sapiens, UniProt P68400)) of COc1c(-c2ccc(O)cc2)oc2cc(O)cc(O)c2c1=O [Compound 6, isokaempferide]
Response: 7.7

Prompt: Write down the reported IC50 (system: CK2α2β2 (Homo sapiens, UniProt P68400)) of COc1c(-c2ccc(O)cc2)oc2cc(OC3OC(C(=O)O)C(O)C(O)C3O)cc(O)c2c1=O (stereo not shown) [Compound 6b]
Response: 5

Prompt: Write down the reported IC50 (system: CK2α2β2 (Homo sapiens, UniProt P68400)) of COc1cc(-c2cc(=O)c3c(O)cc(O)cc3o2)cc(OC)c1O [Compound 3, tricin]
Response: 7.2

Prompt: Write down the reported IC50 (system: CK2α2β2 (Homo sapiens, UniProt P68400)) of O=C(O)[C@H]1O[C@@H](Oc2cc3oc(-c4ccc(O)cc4)cc(=O)c3c(O)c2O)[C@H](O)[C@@H](O)[C@@H]1O [Compound 9, Scutellarin]
Response: 19.1

Prompt: Write down the reported IC50 (system: CK2α2β2 (Homo sapiens, UniProt P68400)) of COc1cc2oc(-c3ccc(O)c(O)c3)cc(=O)c2c(O)c1O [Compound 2, pedalitin]
Response: 0.2

Prompt: Write down the reported IC50 (system: CK2α2β2 (Homo sapiens, UniProt P68400)) of COC(=O)C1OC(Oc2cc(O)c3c(=O)cc(-c4ccc(O)cc4)oc3c2)C(O)C(O)C1O (stereo not shown) [Compound 4c]
Response: 10.5
